# system_under_test: T1, HLA-A2/MAGE-A4 complex (HLA-A*02:01 extracellular domain, human β2m, MAGE-A4 peptide 230-239) (human, UniProt P04439 25-299 at identity 0.94); P61769 21-119)
# T1 construct: also called MAGE-A4/HLA-A2 complex; pMHC
# assay: phage display biopanning and screening of the lambda and optimized kappa libraries
recorded_metric: binding result

[[record]]
binder = "M0864 scFv (scFv, Rabbit scFv from the biopanning screen) scFv: QSVKESGGGLVTPGTPLTLTCTVSGFSLSTYAISWVRQAPGKGLEWIGFIDTVDSAYYASWAKGRFTISKTSSTTVDLKMTSPTTEDTATYFCAKLRYGDYGDYTLWGQGTLVTVSSGGGGSGGGGSGGGGSGGGGASELVMTQTPSPVSGAVGGTVTIKCQASQNIYSYLAWYQQKPGQPPKLLIYKASTLASGVPSRVKGSGSGTEYTLTISGVQAADAATYYCQCTYYDSNTFGGGTEVVVK"
recorded_metric = "binding result"
observed_measurement = "binds"

